Hey, just so you know, these numbers are from paper PMC11013284.

System: L. infantum (MHOM/MA(BE)/67) amastigotes in primary peritoneal mouse macrophages
EXPERIMENT_SUMMARY: L. infantum intramacrophage amastigote assay (microscopic burden)
Assay type: cell-based, Leishmania infantum
CONDITIONS: 5 days, mouse macrophages as host
pIC50: −log10 of the molar value.
ENDPOINT_NAME: pIC50

Some compounds with recorded pIC50:
> print(dat)
                                   compound  reported.result
1  O=C1CC(c2ccccn2)SC(c2ccccn2)C1 (centres unmarked)           ≤ 4.19
2  Cc1ccc(C2CC(=O)CC(c3ccc(C)cc3)S2)cc1 (racemic)           < 4.19
3  O=C1C[C@H](c2ccccn2)S[C@@H](c2ccccn2)C1 (racemic)           ≤ 4.19
4  CC(=O)Nc1ccc(C2CC(=O)CC(c3ccc(NC(C)=O)cc3)S2)cc1 (racemic)           < 4.19

// below: pIC50 requested for another compound
Looking up O=C1C[C@@H](c2ccccc2Cl)S[C@@H](c2ccccc2Cl)C1 , I found its pIC50 recorded as < 4.19
